system: peptide-specific IgG in sera of cancer patients and healthy donors; assay: Measurement of anti-peptide IgG in plasma by LUMINEX multiplexed flow cytometric assay; assay type: binding, human; details: serum of Uterine cervical Ca. patient #18, 1:100 dilution
MEASURE: Fluorescence intesity
No unit in the answer, please; the number alone is enough.

# count of solved cases: 6
>  <CONSTRUCT_SEQUENCE>
RFKVEESYDL (SCCA 286-295 peptide) [SCCA-derived peptide, position 286-295]

>  <TARGET_UNDER_TEST>
peptide-specific IgG in sera of cancer patients and healthy donors

>  <REPORTED_RESULT>
48

$$$$
>  <CONSTRUCT_SEQUENCE>
LFGEKTYLFL (SCCA 107-116 peptide) [SCCA-derived peptide, position 107-116]

>  <TARGET_UNDER_TEST>
peptide-specific IgG in sera of cancer patients and healthy donors

>  <REPORTED_RESULT>
62

$$$$
>  <CONSTRUCT_SEQUENCE>
AYELKIANKL (SCCA 98-107 peptide) [SCCA-derived peptide, position 98-107]

>  <TARGET_UNDER_TEST>
peptide-specific IgG in sera of cancer patients and healthy donors

>  <REPORTED_RESULT>
71

$$$$
>  <CONSTRUCT_SEQUENCE>
KFMFDLFQQF (SCCA 10-19 peptide) [SCCA-derived peptide, position 10-19]

>  <TARGET_UNDER_TEST>
peptide-specific IgG in sera of cancer patients and healthy donors

>  <REPORTED_RESULT>
45

$$$$
>  <CONSTRUCT_SEQUENCE>
EYLDAIKKF (SCCA 118-126 peptide) [SCCA-derived peptide, position 118-126]

>  <TARGET_UNDER_TEST>
peptide-specific IgG in sera of cancer patients and healthy donors

>  <REPORTED_RESULT>
42

$$$$
>  <CONSTRUCT_SEQUENCE>
EFHCNHPFL (SCCA 362-370 peptide) [SCCA-derived peptide, position 362-370]

>  <TARGET_UNDER_TEST>
peptide-specific IgG in sera of cancer patients and healthy donors

>  <REPORTED_RESULT>
50

$$$$

Consider the additional sequence presented here.
Looking up QFQKLLTEF (SCCA 84-92 peptide) [SCCA-derived peptide, position 84-92] , I see its Fluorescence intesity listed as 49

###

tested on: peptide-specific IgG in sera of cancer patients and healthy donors; assay: Measurement of anti-peptide IgG in plasma by LUMINEX multiplexed flow cytometric assay; assay type: binding, human; conditions: serum of Colon Ca. patient #70, 1:100 dilution
MEASURE: Fluorescence intesity
Just the number, please, no unit attached.

>  <CONSTRUCT_SEQUENCE>
EFHCNHPFL (SCCA 362-370 peptide) [SCCA-derived peptide, position 362-370]

>  <Fluorescence intesity>
1

$$$$
>  <CONSTRUCT_SEQUENCE>
AYELKIANKL (SCCA 98-107 peptide) [SCCA-derived peptide, position 98-107]

>  <Fluorescence intesity>
0

$$$$
>  <CONSTRUCT_SEQUENCE>
QFQKLLTEF (SCCA 84-92 peptide) [SCCA-derived peptide, position 84-92]

>  <Fluorescence intesity>
0

$$$$

# sequence RFKVEESYDL (SCCA 286-295 peptide) [SCCA-derived peptide, position 286-295] ; its Fluorescence intesity = 16

For reference, reported Fluorescence intesity for LFGEKTYLFL (SCCA 107-116 peptide) [SCCA-derived peptide, position 107-116] stands at 91

The reported value for EYLDAIKKF (SCCA 118-126 peptide) [SCCA-derived peptide, position 118-126] in terms of Fluorescence intesity is 0

Lab note: measured Fluorescence intesity of KFMFDLFQQF (SCCA 10-19 peptide) [SCCA-derived peptide, position 10-19] was 17
